tested on: WiDr; assay: Antiproliferative activity against human wild type WiDr NTR-ve cells after 18 hrs; assay type: functional, cell-based
Exercise: for every item that follows, state its recorded IC50.
Answers are plain numbers, in µM.

Compound	System Name	Uom	IC50
CS(=O)(=O)OCCN(CCBr)c1cc(C(=O)NCC(O)CO)c([N+](=O)[O-])cc1[N+](=O)[O-] (stereo not given)	WiDr	µM	804

Parameter requested: IC50. Apply to each item below.
1. O=C(NCCCO)c1cc(N(CCBr)CCBr)c([N+](=O)[O-])cc1[N+](=O)[O-]
2. CS(=O)(=O)OCCN(CCBr)c1cc(C(N)=O)c([N+](=O)[O-])cc1[N+](=O)[O-]
3. NCCNC(=O)c1cc(N(CCCl)CCCl)c([N+](=O)[O-])cc1[N+](=O)[O-]

**A:**
1: 56; 2: 80; 3: 180
